# assay_info: DUSP6 inhibitors restoring Erk phosphorylation by chemical complementation, primary imaging in DUSP6-transfected HeLa (AID 609)
# condition_label: HeLa MKP-3 transfected, phospho-Erk imaging KS statistic; measured here: nuclear pErk red intensity z-score; at 10 µM; stronger effect = higher value; cells stimulated with TPA for 15 min
Measured z-score, listed per entry.
Response field accepts a number only; no unit should be typed.

# annotated cases, reported z-score shown
> print(dat)
                                   compound  readout.label  data.value
1  CCOC(=O)N1CCN(c2ncnc3c2[nH]c2ccc(OC)cc23)CC1        z-score        1.15
2     CCCCc1cc(=O)oc2c(CN(C)C)c(O)c(Cl)cc12        z-score       0.835

Entry COC(=O)C1=C(C)N=C2SC(C)C(=O)N2C1c1ccc(C(=O)OC)cc1 (centres undefined) , z-score reported as -3.03

Entry CCC(NC(C)C)C(O)c1ccc(O)c(O)c1 (centres undefined) , z-score reported as 0.461

====

Measured inhibition of aggregation, listed per entry.
# assay_info: inhibitors of mutant huntingtin aggregation, primary screen, imaging, exon1htt(103Q)mCFP cells, high-content imaging (AID 483);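 note: compound exposure lasted 3 days before fixation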
# condition_label: exon1htt(103Q)mCFP cell line, aggregate imaging, at 2 µM; stronger effect = higher value
Give just the number in %; leave the unit off.

molecule	data_value
O=C(OCCCN1CCCC1)C1(c2ccccc2)CCCC1	-0.8
CC(=O)O[C@H]1C[C@@H]2CC[C@@H]3[C@H](CC[C@@]4(C)[C@H]3C[C@H]([N+]3(C)CCCCC3)[C@@H]4OC(C)=O)[C@@]2(C)C[C@@H]1[N+]1(C)CCCCC1	-15.2
Cc1ccc(C)c(OCCCC(C)(C)C(=O)O)c1	26.1
CCN(CC)CCOC(=O)C(c1ccccc1)c1ccccc1	19.8
CCCCOc1ccc(OCCCN2CCOCC2)cc1	7.5

Entry CC(O)c1n(C)c(Cl)c[n+]1C (centres undefined) , inhibition of aggregation reported as -4

Entry COc1ccc(/C=C/C(=O)Nc2ccccc2C(=O)O)cc1OC , inhibition of aggregation reported as -20.4

Entry Cn1ccnc1SCCC#N , inhibition of aggregation reported as -3.9

Entry CCOc1nc(-c2ccncc2)nc2ccccc12 , inhibition of aggregation reported as -55

====

# assay_info: DUSP6 inhibitors restoring Erk phosphorylation by chemical complementation, primary imaging in DUSP6-transfected HeLa (AID 609)
# condition_label: HeLa MKP-3 transfected, phospho-Erk imaging KS statistic; measured here: cell density z-score; at 10 µM; cells stimulated with TPA for 15 min
readout_label: z-score
Response field accepts a number only; no unit should be typed.

# annotated cases, reported z-score shown
compound	readout_label	data_value
N#Cc1c(N)sc(=S)c2c1CCCCC2	z-score	-0.472
CN1C(=S)SC(N(O)C(=O)Nc2ccccc2)C1(C)C (stereo unspecified)	z-score	0.407
CC1(C)NC(=O)N(CC(O)COc2ccccc2C(=O)Nc2ccccc2)C1=O (stereo unspecified)	z-score	-0.97
Nc1[nH]nc2nc(NCc3ccccc3)c3c(c12)CCN(Cc1ccccc1)C3	z-score	1.59

Alright, here's another compound for you.
Entry Cc1nc(NS(=O)(=O)c2ccccc2)sc1NC(=O)OC(C)C , z-score reported as -0.163
